Listed here are compounds together with their documented growth.
tested on: NCI-H23 lung; assay: NCI-60 one-dose screen, 48 h (100 = growth as untreated, 0 = no growth, -100 = all killed); details: 10 µM unless noted
This is part of a sample that, as a whole, favours compounds with a hit. Of some 83,000 tested, about 20% had one in any assay.

# COMPOUND, READOUT UNIT, growth
rows = [
    ("Cc1cc2c(C(C)C)c(O)c(O)c(C=NCCCCCCC(=O)O)c2c(O)c1-c1c(C)cc2c(C(C)C)c(O)c(O)c(C=NCCCCCCC(=O)O)c2c1O", "%", 21.8),
    ("COC12CC(=O)C(C(C)=O)=C(O)C1(C)c1c(O)c(C)c(O)c(C(C)=O)c1O2 (stereo not given)", "%", 50.5),
    ("Cc1cccc(NC(=O)c2sc3nc4c(cc3c2N)CCC4)c1C", "%", 36),
    ("COC1=CC(c2ccc[nH]2)=N/C1=C\\c1[nH]c(C)c(C(=O)CCCCC(=O)Nc2ccccc2)c1C", "%", 34.4),
    ("Clc1cccc(Cl)c1Cn1c(-c2cncs2)nc2ccccc21", "%", 71),
    ("COc1ccc(NC(=O)CSc2nc3ccc(Cl)cc3c(=O)n2-c2ccccc2C(F)(F)F)c(OC)c1OC", "%", 79.6),
    ("COc1cccc2cc(-c3cc4ccccc4[nH]3)c(=NC(=O)c3ccc(Cl)cc3)oc12", "%", 40.2),
    ("COc1ccc(-c2nc(-c3ccccc3)c(-c3ccccc3)n2C2CC2)cc1OC1CCCCC1", "%", 72.6),
    ("CSc1ccccc1C#C/C=C\\C#Cc1ccccc1N1CCCCC1=O", "%", 103),
    ("N#Cc1ccc(NC(=O)c2ccc3cccnc3c2O)cc1", "%", 43.7),
    ("c1ccc2nc(-c3ccc4ccccc4n3)ccc2c1", "%", 88.5),
    ("CN(C)C/C=C/C(=O)Nc1cc2c(Nc3cccc(Cl)c3F)ncnc2cc1OCCOC(F)F", "%", 60.9),
    ("COc1ccc(Cn2cc(COc3cc(/C=C/C(=O)c4cc(OC)c(OC)c(OC)c4)ccc3OC)nn2)cc1", "%", 107),
    ("C=C1C(=O)O[C@H]2[C@H](O)[C@@H](C)CCC/C(C)=C/CC[C@@]3(C)O[C@@H]3C[C@@H]12", "%", 95.3),
    ("Nc1ccc(S(=O)(=O)c2ccc(Cl)cc2)cc1", "%", 97.9),
    ("CCn1c(=O)c2c(=O)c3c4c(oc3oc2c2ccccc21)C(=O)c1ccccc1C4=O", "%", 66.8),
    ("CCn1cc(C(=O)O)c(=O)c2cc(F)c(N3CCN(S(=O)(=O)c4ccc(OC)c(OC)c4)CC3)cc21", "%", 99.6),
    ("Cn1c(-c2nonc2NC(=O)c2ccc(F)cc2)nc2ccccc21", "%", 108),
    ("NC(=O)c1c(NC(=O)c2ccc3c(c2)OCO3)sc2c1CCC(=O)C2", "%", -12.6),
    ("O=C1OC(c2ccccc2)=N/C1=C\\c1ccc([N+](=O)[O-])cc1", "%", 100),
    ("CC(C)N(Cc1ccc(CN(C(=O)CCl)C(C)C)cc1)C(=O)CCl", "%", 19.8),
    ("C[N+](C)(C)c1ccc(CC2c3ccccc3-c3ccccc32)cc1", "%", 78.5),
    ("COc1ccc(/C=C2\\Oc3cc(OCCN4CCCC4)ccc3C2=O)c(OC)c1", "%", 88.5),
    ("CCCCCc1c(C)[nH]c(/C=c2\\[nH]/c(=C3/C=c4ccccc4=N3)cc2OC)c1C", "%", -42.1),
    ("C=C1C(=O)O[C@H]2[C@H]1CC/C(COC(=O)NCCc1cccc(OC)c1)=C\\CC[C@@]1(C)O[C@@H]21", "%", 75.1),
    ("COC(=O)c1cc(-c2cccs2)c(C#N)c(N)c1C#N", "%", 96.7),
    ("CCCn1c(=S)sc2c(Cl)nc(C)nc21", "%", 110),
    ("COc1ccc(C2CC(c3cccs3)=NN2c2ccc(S(=O)(=O)NC(=O)Nc3ccc(C)cc3)cc2)cc1 (stereo not given)", "%", 98.5),
    ("CCC(=O)Oc1ccc2c(c1)CC[C@@H]1[C@@H]2CC[C@]2(C)C[C@H](OC(=O)CC)C[C@@H]12", "%", 79.1),
    ("Cc1cc(C)c2c(=O)[nH]c(SCC(=O)Nc3cccc(S(=O)(=O)N(C)C)c3)nc2n1", "%", 104),
    ("Cc1oc2nc[nH]c(=O)c2c1C(=O)/C=C/c1ccc(Cl)cc1", "%", 39.7),
    ("COc1cc(Cn2c(SCCC(=O)Nc3ccc(F)cc3)nc3ccccc3c2=O)cc(OC)c1OC", "%", 90.5),
    ("Cc1cc(N/C=c2\\sc3ncnn3c2=O)no1", "%", 91.6),
    ("COc1ccc(C2CC(c3cccs3)=NN2c2ccc(S(=O)(=O)NC(=O)NCc3cccc(OC)c3)cc2)cc1 (stereo not given)", "%", 97.6),
    ("COc1cccc(NC(=O)c2sc3nc4c(cc3c2N)CCCC4)c1", "%", 32.3),
    ("CCSc1nnc(Nc2ccc(C(C)C)cc2)s1", "%", 79.3),
    ("C=C1C(=O)O[C@H]2[C@H]1CC/C(COC(=O)NCCc1ccc(OC)cc1)=C\\CC[C@@]1(C)O[C@@H]21", "%", 66.6),
    ("CCCCCCCC/C=C\\CCCCCCCCOc1ccccc1CCOP(=O)(O)OCC[N+](C)(C)C", "%", 90.2),
    ("COc1ccc2c(c1)NC(=O)CN2c1nc(C)nc2ccccc12", "%", 20.4),
    ("CN(C)c1ncc(-c2ccc(C(F)(F)F)cc2)c(NC2CCCCCC2)n1", "%", 58.5),
]

====

test system: EKVX NSCLC; assay: NCI-60 one-dose screen, 48 h; settings: 10 µM unless noted
This is part of a sample that, as a whole, favours compounds with a hit. Of some 83,000 tested, about 20% had one in any assay. Calls of active or inactive are those of the source. Rule for the calls: active = growth percent below 10; inactive = the rest.
Outcomes: 1 = active, 0 = inactive

# MOLECULE, ANSWER LABEL
measured = [
    ("O=C(OCCCCOC(=O)n1cnc2ccccc21)n1cnc2ccccc21", 0),
    ("COc1ccc(/C=C/C(=O)OCC(=O)NNC(=O)c2ccccc2)cc1OC", 0),
    ("C#CCN1C(=O)/C(=c2\\sc3n(c2=O)NC2C(N=3)N(CC)C(=O)N2CC)c2ccccc21 (configuration not stated)", 0),
    ("Cc1cc2c(C(C)C)c(O)c(O)c(C=NCCCCC(=O)O)c2c(O)c1-c1c(C)cc2c(C(C)C)c(O)c(O)c(C=NCCCCC(=O)O)c2c1O", 0),
    ("CCCCCCCCCCC/C=C\\C[C@H](O)C/C=C1/C(=O)C=C[C@@H]1C/C=C\\CCCC(=O)OC", 1),
    ("CC(=O)Nc1ccc2c(c1)/C(=C\\C=C/c1ccc([N+](C)(C)C)cc1)c1ccccc1-2", 0),
    ("CCN(CC)S(=O)(=O)c1ccc2[nH]c(=O)cc(C(=O)Nc3ccc(OC)cc3OC)c2c1", 0),
    ("CSc1ccccc1C#C/C=C\\C#Cc1ccccc1N1CCCC1=O", 0),
    ("CC(=O)/C=C/c1cc2cc(Cl)ccc2[nH]c1=O", 0),
    ("CCSc1nnc(NC(=O)COc2ccc(Cl)cc2C)s1", 0),
    ("COC(=O)c1ccc(C)cc1", 0),
    ("CCN(CC)CCC(=O)c1cccc2ccccc12", 0),
    ("Cc1ccc2c(c1)ncn2-c1ncnc2c1CC(C)c1ccccc1N2C (configuration not stated)", 0),
    ("COc1ccc(C2NC3=C(CCCC3)C(C#N)(C#N)C2(C#N)C#N)cc1 (configuration not stated)", 0),
    ("COc1ncc(-c2ccc3ncnc(Nc4cccc(Cl)c4)c3c2)cc1NS(=O)(=O)CCN1CCOCC1", 1),
    ("CN(C)C/C=C/C(=O)Nc1cc2c(Nc3cccc(Cl)c3F)ncnc2cc1OCCOC(F)F", 0),
    ("Cc1cc(Cl)ccc1OC(C)C(=O)Nc1nnc(C2CC2)s1 (configuration not stated)", 0),
    ("Nc1nc(-c2cc3ccccc3o2)cc(=O)c(=O)[nH]1", 0),
    ("CC1CCN(C(=O)CSc2nc3sc4c(c3c(=O)[nH]2)CCCC4)CC1", 0),
    ("O=C(Nc1cccc(Cl)c1)c1cc([N+](=O)[O-])ccc1O", 0),
    ("Nc1ccc(S(=O)(=O)c2ccc(Cl)cc2)cc1", 0),
    ("CCCC1OC(c2ccc(C(C)C)cc2)OCC1CC (configuration not stated)", 0),
    ("O=C(/C=C/CN1CCOCC1)Nc1cc2c(Nc3ccc(F)c(Cl)c3F)ncnc2cc1OCCOC(F)F", 0),
    ("COc1ccc(/C(=N\\O)c2cc(OC)c(OC)c(OC)c2)c(OC)c1N", 0),
    ("CCC(c1ccc(OC)cc1)C(CC)c1ccc(O)c(CN2CCCC2)c1 (configuration not stated)", 0),
    ("COc1cc2c(cc1OCCCCn1c(-c3cc(=O)c4ccccc4o3)nc3ccccc31)N=C[C@@H]1CCCN1C2=O", 0),
    ("Cc1oc2nc[nH]c(=O)c2c1C(=O)/C=C/c1ccc(Cl)cc1", 0),
    ("CC/C=C\\C/C=C\\C[C@H](O)C/C=C1/C(=O)C=C[C@H]1C/C=C\\CCC(=O)OC", 0),
    ("O=[N+]([O-])c1ccc(S(=O)(=O)N2CCN(c3ccnc4cc(Cl)ccc34)CC2)c([N+](=O)[O-])c1", 0),
    ("CCSc1nnc(Nc2ccc(C(C)C)cc2)s1", 0),
    ("O=S(=O)(NCCCNc1nccc(-c2c(-c3ccc(F)c(O)c3)nc3sccn23)n1)c1ccc(Cl)cc1", 0),
    ("C/C(=N\\NC(=O)CC#N)c1cc2cc(Cl)ccc2o1", 0),
    ("c1ccc2c(c1)Oc1ccccc1C2C1c2ccccc2Oc2ccccc21", 0),
    ("O=C(Nc1ccc(F)cc1)c1cc([N+](=O)[O-])ccc1O", 0),
    ("COC(=O)CC/C(C)=N\\Nc1ccc([N+](=O)[O-])cc1", 0),
    ("O=C1CCC/C=C\\C[C@H]2C=CC(=O)/C2=C/C[C@H](C/C=C\\CC(F)(F)F)O1", 1),
    ("O=C(O)c1ccc(-n2cc(CNc3ccc(C(F)(F)F)cc3)c(-c3ccccc3)n2)cc1", 0),
    ("CCC#CC[C@H]1C/C=C2/C(=O)C=C[C@@H]2C/C=C\\CCCC(=O)O1", 0),
    ("O=C(O)C(=Cc1c2ccccc2cc2ccccc12)C(=O)O", 0),
    ("CCN(Cc1ccc(CN(CC)C(=O)C(Cl)(Cl)Cl)cc1)C(=O)C(Cl)(Cl)Cl", 0),
    ("Cc1c(C(=O)NCc2ccccc2)[n+](=O)c2cc(F)ccc2n1[O-]", 0),
    ("CC(=O)N1Cc2ccccc2C(C)Cc2cc(Cl)ccc21 (configuration not stated)", 0),
]
